Target: zif268 DBD wild type (RE) (UniProt P08046 331-420)
Assay: EMSA (Scatchard x QuMFRA); derived; 30 mM Tris-HCl pH 8.0, 50 mM NaCl, 0.1 mg/ml BSA, 3 mM DTT, 20 uM ZnSO4, 5 ug/ml poly(dI-dC), 1 h on ice; 10% polyacrylamide gel
Answer each item with its documented Ka.

// known answers, use as guide
Consider the binder shown here: Zif_2 (CA) (dsDNA) DNA 1: TCGAGGTCGACGGTATCGCGTGGGCACTCCACTAGTTCTAGAGCGGCCGCCAC DNA 2: GTGGCGGCCGCTCTAGAACTAGTGGAGTGCCCACGCGATACCGTCGACCTCGA What is its recorded Ka?
109 10^6 M-1

Consider the binder shown here: Zif_4 (AG) (dsDNA) DNA 1: TCGAGGTCGACGGTATCGCGTGGGAGCTCCACTAGTTCTAGAGCGGCCGCCAC DNA 2: GTGGCGGCCGCTCTAGAACTAGTGGAGCTCCCACGCGATACCGTCGACCTCGA What is its recorded Ka?
63 10^6 M-1

Consider the binder shown here: Zif_1 (CG) (dsDNA) DNA 1: TCGAGGTCGACGGTATCGCGTGGGCGCTCCACTAGTTCTAGAGCGGCCGCCAC DNA 2: GTGGCGGCCGCTCTAGAACTAGTGGAGCGCCCACGCGATACCGTCGACCTCGA What is its recorded Ka?
406 10^6 M-1

Consider the binder shown here: Zif_5 (AA) (dsDNA) DNA 1: TCGAGGTCGACGGTATCGCGTGGGAACTCCACTAGTTCTAGAGCGGCCGCCAC DNA 2: GTGGCGGCCGCTCTAGAACTAGTGGAGTTCCCACGCGATACCGTCGACCTCGA What is its recorded Ka?
26 10^6 M-1

Continue with the binder presented below.
Consider the binder shown here: Zif_6 (AC) (dsDNA) DNA 1: TCGAGGTCGACGGTATCGCGTGGGACCTCCACTAGTTCTAGAGCGGCCGCCAC DNA 2: GTGGCGGCCGCTCTAGAACTAGTGGAGGTCCCACGCGATACCGTCGACCTCGA What is its recorded Ka?
16 10^6 M-1
